# Test system: Escherichia coli
# method-summary: Antimicrobial activity against Escherichia coli XL10/vector
# Format: functional
Recorded MIC for the following compounds
readout-type: MIC (µg/mL)

>  <compound>
CC1(C)S[C@@H]2[C@H](NC(=O)[C@H](N)c3ccc(O)cc3)C(=O)N2[C@H]1C(=O)O

>  <readout-type>
MIC

>  <output-unit>
µg/mL

>  <comparative-sign>
=

>  <recorded-measurement>
16

$$$$
>  <compound>
CO/N=C(\C(=O)N[C@@H]1C(=O)N2C(C(=O)[O-])=C(C[N+]3(C)CCCC3)CS[C@H]12)c1csc(N)n1 [CEFEPIME]

>  <readout-type>
MIC

>  <output-unit>
µg/mL

>  <comparative-sign>
≤

>  <recorded-measurement>
0.06

$$$$
>  <compound>
C[C@H]1[C@H](NC(=O)/C(=N\OC(C)(C)C(=O)O)c2csc(N)n2)C(=O)N1S(=O)(=O)O

>  <readout-type>
MIC

>  <output-unit>
µg/mL

>  <comparative-sign>
=

>  <recorded-measurement>
0.12

$$$$
>  <compound>
CO/N=C(\C(=O)N[C@@H]1C(=O)N2C(C(=O)O)=C(COC(C)=O)CS[C@H]12)c1csc(N)n1

>  <readout-type>
MIC

>  <output-unit>
µg/mL

>  <comparative-sign>
≤

>  <recorded-measurement>
0.06

$$$$

Reference for the values: ChEMBL document CHEMBL1142078
